Where these numbers come from: PubChem BioAssay AID720706

Reported OD600 change values are given for each entry in this list.
- Assay Name: GFP drop in mixed WT/humanized-ribosome E. coli culture – GFP/RFP fluorescence, OD600, single point, bacterial rRNA inhibitor project, primary screen (AID 720706)
- Condition Details: E. coli WT GFP vs humanized-ribosome RFP mutants, 24 h; measured here: OD600 growth, DMSO median 0, no signal -100
Screen size: about 350,000 compounds; about 5,500 (1.6%) were called active. For the sample, actives were picked, then their nearest neighbours and some compounds at random.

[
  {
    "Compound": "C[C@H](CO)N1C[C@H](C)[C@H](CN(C)Cc2ccc3c(c2)OCO3)Oc2c(NS(=O)(=O)c3ccccc3)cccc2C1=O",
    "Result Units": "%",
    "OD600 change": 3.3
  },
  {
    "Compound": "O=C(NC1CCCC1)[C@@H]1[C@@H](CO)[C@@H]2Cn3c(ccc(-c4ccc(F)cc4)c3=O)[C@H]1N2Cc1cocn1",
    "Result Units": "%",
    "OD600 change": 4.54
  },
  {
    "Compound": "Cc1ccc(OCCCC(=O)NC(C)c2ccccc2)c(C)c1 (stereo not given)",
    "Result Units": "%",
    "OD600 change": -9.71
  },
  {
    "Compound": "Cc1ccccc1CN1C(=O)CSCC1(C)C(=O)Nc1c(C)cccc1C (stereo not given)",
    "Result Units": "%",
    "OD600 change": 8.15
  },
  {
    "Compound": "COc1ccc(NC(=O)N2CCC(Cc3ccccc3)CC2)cc1",
    "Result Units": "%",
    "OD600 change": -5.59
  }
]

---

- Assay Name: GFP drop in mixed WT/humanized-ribosome E. coli culture – GFP/RFP fluorescence, OD600, single point, bacterial rRNA inhibitor project, primary screen (AID 720706)
- Condition Details: E. coli WT GFP vs humanized-ribosome RFP mutants, 24 h; measured here: RFP humanized mutant strains, DMSO median 0, no signal -100, concentration not given here
Screen size: about 350,000 compounds; about 5,500 (1.6%) were called active. What follows is part of a selection rich in actives, with near analogues and random picks from the rest.
Result Type: RFP signal change (%)

[
  {
    "Compound": "O=C(N/N=C/c1ccc(OCc2ccccc2)cc1)c1ccc(O)cc1",
    "Reading": 7.26
  },
  {
    "Compound": "CN(c1cccc(NC(=O)c2ccc(CN3CCc4ccccc4C3)cc2)c1)S(C)(=O)=O",
    "Reading": -3.92
  },
  {
    "Compound": "C[C@H](NC(=O)N(C)C[C@@H]1OCc2ccccc2-c2ccccc2C(=O)N([C@H](C)CO)C[C@@H]1C)c1ccccc1",
    "Reading": -2.69
  },
  {
    "Compound": "COc1ccc(NC(=O)N(C)C[C@@H]2OCCCC[C@H](C)Oc3ccc(NS(=O)(=O)c4cn(C)cn4)cc3C(=O)N([C@@H](C)CO)C[C@@H]2C)cc1",
    "Reading": 1.12
  },
  {
    "Compound": "COC(=O)C[C@@H]1CC[C@H]2[C@@H](COC[C@H](O)CN2C(=O)Nc2ccccc2OC)O1",
    "Reading": 2.71
  },
  {
    "Compound": "Cc1cc(C(=O)O)ccc1[N+](=O)[O-]",
    "Reading": -0.268
  },
  {
    "Compound": "CCCC(=O)Nc1ccc2c(c1)C(=O)N(C)[C@@H]1CC[C@H](CC(=O)NCCOC)O[C@H]1CO2",
    "Reading": 0.31
  },
  {
    "Compound": "C[C@@H]1CCCCO[C@H](CN(C)Cc2ccc(C(=O)Nc3ccccc3N)cc2)[C@H](C)CN([C@H](C)CO)C(=O)c2cc(N(C)C)ccc2O1",
    "Reading": 2.24
  },
  {
    "Compound": "O=C(CSc1nnnn1-c1ccc(O)cc1)c1ccc(F)cc1",
    "Reading": -2.43
  },
  {
    "Compound": "CCCN(C)C[C@@H]1OCCCC[C@H](C)Oc2ccc(NS(=O)(=O)c3ccc(C)cc3)cc2C(=O)N([C@H](C)CO)C[C@@H]1C",
    "Reading": 1.63
  },
  {
    "Compound": "COc1ccc(NC(=O)N[C@@H]2CC[C@H](CCn3cc(-c4ccc(OC)cc4)nn3)O[C@@H]2CO)cc1",
    "Reading": 3.35
  },
  {
    "Compound": "O=C(CC1CC1)N1CC(=O)N2[C@H](CO)[C@H](c3ccc(C#Cc4ccc(F)cc4)cc3)[C@@H]2C1",
    "Reading": 15.4
  },
  {
    "Compound": "O=C(c1ccncc1)N1CC(=O)N2[C@H](CO)[C@H](c3ccc(-c4ccccc4F)cc3)[C@@H]2C1",
    "Reading": -0.215
  },
  {
    "Compound": "CC1(C(=O)NCc2ccco2)Cc2c(-c3ccc4c(c3)OCO4)ccnc2O1 (centres undefined)",
    "Reading": -2.19
  },
  {
    "Compound": "CN1c2ccc([N+](=O)[O-])cc2C(C)(C)C12C=Cc1cc(C(=O)O)ccc1O2 (centres undefined)",
    "Reading": -10.7
  },
  {
    "Compound": "CC(C(=O)NC1CCS(=O)(=O)C1)N1C(=O)/C(=C/c2ccc(Cl)cc2)SC1=S (centres undefined)",
    "Reading": 1.14
  },
  {
    "Compound": "CC(C)=N/N=C1/NC(=O)C(Cc2ccccc2)S1 (centres undefined)",
    "Reading": 4.42
  },
  {
    "Compound": "CC(=O)Nc1cccc(NC(=O)c2ccc3c(c2)CCN3S(C)(=O)=O)c1",
    "Reading": 5.89
  },
  {
    "Compound": "O=C1Nc2ccccc2NC(c2ccc3c(c2)OCO3)=C1N(Cc1ccc(F)cc1)C(=O)c1ccco1",
    "Reading": 8
  },
  {
    "Compound": "C[C@H]1CCCCO[C@@H](CN(C)Cc2ccncc2)[C@@H](C)CN([C@@H](C)CO)C(=O)c2cc(NC(=O)Nc3ccc(F)cc3)ccc2O1",
    "Reading": -0.987
  },
  {
    "Compound": "CC(C)NC(=O)N(C)C[C@H]1Oc2ccc(N)cc2C(=O)N(C)C[C@@H]1C",
    "Reading": -0.42
  },
  {
    "Compound": "CC(=O)Nc1ccc(NC(=O)CSc2nnnn2-c2ccccc2F)cc1",
    "Reading": -0.743
  },
  {
    "Compound": "Cc1ccccc1OCCC(=O)OCC(=O)NC(C)c1ccccc1 (centres undefined)",
    "Reading": 0.763
  },
  {
    "Compound": "CS(=O)(=O)N1CCc2cc(C(=O)Nc3ccccc3)ccc21",
    "Reading": 3.33
  },
  {
    "Compound": "COc1ccc2c3c([nH]c2c1)[C@H](CO)N(C(=O)CN1CCOCC1)CC31CN(C(C)=O)C1",
    "Reading": 0.589
  },
  {
    "Compound": "O=C(N/N=C/c1cccc(O)c1)c1cc2c(ccc3ccccc32)o1",
    "Reading": 6.33
  },
  {
    "Compound": "Cc1ccccc1-n1nnnc1SCCCC(=O)c1ccc(F)cc1",
    "Reading": -2.44
  },
  {
    "Compound": "CC(NC(=O)c1ccco1)c1ccc2c(c1)OCO2 (centres undefined)",
    "Reading": -2.06
  },
  {
    "Compound": "CN(C(=O)CN1C(=O)/C(=C/c2ccc(Cl)cc2)SC1=S)C1CCS(=O)(=O)C1 (centres undefined)",
    "Reading": 0.337
  },
  {
    "Compound": "CCCN(C)C[C@H]1OCCCC[C@@H](C)Oc2ccc(NC(=O)Nc3ccc(F)cc3)cc2C(=O)N([C@@H](C)CO)C[C@H]1C",
    "Reading": 3.72
  },
  {
    "Compound": "O=C(Cc1cccs1)N/N=C/c1ccc(OCc2ccccc2)cc1",
    "Reading": -8.12
  },
  {
    "Compound": "Cc1ccc(NC(=O)Nc2cc(-c3ccccc3)nn2C)cc1Cl",
    "Reading": -13.4
  },
  {
    "Compound": "CN(O)C(=S)c1ccccc1",
    "Reading": -15
  },
  {
    "Compound": "C[C@H]1CN([C@@H](C)CO)S(=O)(=O)c2ccc(-c3cncnc3)cc2O[C@H]1CN(C)Cc1ccncc1",
    "Reading": 0.44
  }
]
